Attribution: patent US8927500B2

- study target: MDM2 (Homo sapiens)
- Sequence (Q00987 1-125): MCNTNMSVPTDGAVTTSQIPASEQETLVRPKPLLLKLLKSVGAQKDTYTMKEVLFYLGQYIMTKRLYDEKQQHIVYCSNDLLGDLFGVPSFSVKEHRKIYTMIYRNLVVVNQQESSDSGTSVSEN
- experiment description: Competitive fluorescence polarization assay for MDM2
- Format: binding
- condition context: competitive FP assay, MDM2; read-out: IC50 (MDM2)
pIC50: −log10 of the molar value. Where a SMILES comes first, the peptide text is derived from it. Bridges are numbered along the chain shown (N, C = ends). [ ]: non-standard residue; d: D form. R8 = C=CCCCCCC[C@@](C)(N)C(=O)O; Cba = N[C@@H](CC1CCC1)C(=O)O; S5 = C=CCCC[C@](C)(N)C(=O)O
readout label: pIC50

compound	value
CC(=O)N[C@@H](CC(C)C)C(=O)N[C@H](C(=O)N[C@@H](Cc1ccccc1)C(=O)N[C@]1(C)CCCCCCC=CCCC[C@@](C)(C(=O)N[C@@H](CO)C(=O)N[C@@H](C)C(=O)N[C@@H](Cc2ccccc2)C(N)=O)NC(=O)[C@H](CC2CCC2)NC(=O)[C@H](CCC(N)=O)NC(=O)[C@H](CO)NC(=O)[C@H](Cc2c[nH]c3ccccc23)NC(=O)[C@H](Cc2ccc(O)cc2)NC(=O)[C@H](C)NC1=O)[C@@H](C)O [compound 262] (Ac-LTF[R8]AYWSQ[Cba][S5]SAF-NH2; staple 4-11)	7.00 to 8.00

I am curious: what pIC50 value has been reported for CC(=O)N[C@@H](CCC(=O)O)C(=O)N[C@H](C(=O)N[C@@H](Cc1ccccc1)C(=O)N[C@]1(C)CCCCCCC=CCCC[C@@](C)(C(=O)N[C@@H](CO)C(=O)N[C@@H](C)C(=O)N[C@H](C)C(N)=O)NC(=O)[C@H](CC(C)C)NC(=O)[C@H](CCC(N)=O)NC(=O)[C@H](C)NC(=O)[C@H](Cc2c[nH]c3ccccc23)NC(=O)[C@H](Cc2ccc(O)cc2)NC(=O)[C@H](C(C)C)NC1=O)[C@@H](C)O [compound 124] (Ac-ETF[R8]VYWAQL[S5]SA[dA]-NH2; staple 4-11) ?
> 8.00
